// each record: one item and its GI50 for HCT-15

| COMPOUND | MODIFIER SIGN | GI50, µM |
| --- | --- | --- |
| CC(=O)c1ccc(NC(=O)C(=O)C(C(=O)c2ccc(Cl)c(Cl)c2)C2OC(=O)c3ccccc32)cc1 (stereo not given) | = | 16.8 |
| COC(=O)C1Cc2c(n(C)c3ccccc23)C(c2ccccc2)N1 (stereo not given) | = | 14.2 |
| Cc1c2n(c(=O)[nH]c1=O)C1OC(CO)C(O2)C1N=[N+]=[N-] (stereo not given) | > | 100 |
| C=CC(OCC)(OCC)OCC | = | 53.1 |
| N#Cc1c(-c2ccc(Cl)cc2)c2c([nH]c1=O)-c1cc([N+](=O)[O-])ccc1CCC2 | = | 14.3 |

###

# Test system: RPMI-8226
# TEST NAME: NCI tumour cell line growth inhibition, 48 h
Activity calls are given as the source filed them. Rule as the data show it: active = GI50 up to about 1.1 µM and inactive = higher.
Classes used: T for active, F for inactive

| MOLECULE | DISCRETE LABEL |
| --- | --- |
| Cc1ccc(S(=O)(=O)N2CCC(=O)c3cc(Br)ccc32)cc1 | F |
| C=C1CCC2C(C)(CO)C(O)CCC2(C)C1C/C=C1/CCOC1=O (stereo unspecified) | F |
| O=C(CCCn1cnc([N+](=O)[O-])n1)NCCCn1ccnc1[N+](=O)[O-] | F |
| Nc1nccc(NCC2(CO)CCC2)n1 | F |
| NS(=O)(=O)c1ccc(NC(=O)Cc2nc3ccccc3s2)cc1 | F |
| C1=CN2C[n+]3cccc(OCc4ccccc4)c3N=C2C(OCc2ccccc2)=C1 | F |
| Cc1ccc(C2=Nc3ccccc3SC(c3cccc([N+](=O)[O-])c3)C2)cc1 (stereo unspecified) | F |
| COc1ccc2nc3cc(Cl)ccc3c(NCCCN(CCCl)CCCl)c2c1 | T |
| Cc1cccc(-c2cccc(COCc3cccc(-c4cccc(CO)n4)n3)n2)n1 | F |
| N#C/C(=C\c1ccc2ccccc2c1)C(=O)c1ccccc1 | F |
| CCC1OC(=O)C(C)C(OC2CC(C)(O)C(O)C(C)O2)C(C)C(O)C(C)(O)CC(C)C(=O)C(C)C(O)C1C (stereo unspecified) | F |
| COC(=O)C(CCC1CC(OC)N(C(=O)OCc2ccccc2)C1)/N=C/c1ccccc1 (stereo unspecified) | F |
| Oc1ccc(Cl)cc1C1=NC(NCN2CCN(CNC3=NC(c4ccccc4)CC(c4cc(Cl)ccc4O)=N3)CC2)=NC(c2ccccc2)C1 (stereo unspecified) | F |
| O=c1oc2ccccc2cc1P(=O)(O)O | F |
| [N-]=[N+]=Nc1cc(=O)n2c3c(cccc13)CCC2 | F |
| O=C(O)c1cc(CCc2cc(O)ccc2O)ccc1O | F |
| CCC/C=C/C=C\C(=O)O[C@@H]1[C@@H](C)[C@]2(O)[C@@H]3C=C(C)C(=O)[C@H]3CC(COC(C)=O)=C[C@H]2[C@@H]2C(C)(C)[C@]12OC(C)=O | F |
| CCOC(=O)c1c(NC(=O)c2ccc(Br)cc2)sc2c1CCCC2 | F |
| O=C(O)c1ccc(C2C3C=CC(C3)C2[N+](=O)[O-])cc1 (stereo unspecified) | F |
| NC(=O)C(c1ccccc1)N1OC2C(=O)N(c3ccccc3)C(=O)C2C1c1c2ccccc2c(Cl)c2ccccc12 (stereo unspecified) | F |
| COc1nc(N(C)C)nc2c1[n+](C)cn2C | F |

###

# Tested on: SNB-75
# TEST NAME: NCI tumour cell line growth inhibition, 48 h
Calls of active or inactive are those of the source. Rule as the data show it: active = GI50 up to about 1.1 µM and inactive = higher.
Classes used: active, inactive

| MOLECULE | DISCRETE LABEL |
| --- | --- |
| CCSc1nc(N2CCOCC2)c2cn[nH]c2n1 | inactive |
| Cc1ccc(NC(=O)CC2C(=O)Nc3ccccc3[S+]2[O-])cc1C (stereo not given) | inactive |
| COc1ccc2nc3cc(Cl)ccc3c(NCCCN(CCCl)CCCl)c2c1 | active |
| N#C/C(C(=O)Nc1ccccc1)=C(/N)N1CCOCC1 | inactive |
| COC(=O)C1=CC[C@@H]2C(C(=O)O)=CO[C@@H](OC3OC(CO)C(O)C(O)C3O)[C@H]12 (stereo not given in full) | inactive |
| CC(C)(CN1CCCCC1)C(=O)CC(SCCN)c1ccc(Cl)cc1 (stereo not given) | inactive |
| O=C(CCN1CCCCC1)N1CCc2c([nH]c3ccccc23)C1c1cccnc1 (stereo not given) | inactive |
| CSCCC(N)C(=O)NCCNc1ccc(NCCNC(=O)C(N)CCSC)c2c1C(=O)c1ccccc1C2=O (stereo not given) | inactive |
| CNc1c2c(c3nc4ccccc4c4c3c1N=C4)NCCC2=O | inactive |
| COc1ccc2nc3ccc(OC)cc3c(SCc3ccc([N+](=O)[O-])cc3)c2c1 | inactive |

###

# Tested on: K562
# TEST NAME: NCI tumour cell line growth inhibition, 48 h
Calls of active or inactive are those of the source. Cut-off read from the data, not from the text of the source: active = GI50 up to about 1.1 µM and inactive = higher. Where a SMILES comes first, the peptide text is derived from it. [ ]: non-standard residue; d: D form. The star is where a group is joined. NMeF = CN[CH](Cc1ccccc1)C(=O)O; NMeV = CN[CH](C(=O)O)C(C)C; Boc = CC(C)(C)OC(=O)*; OBn = c1ccc(CO*)cc1
Each entry below lists one item and its recorded GI50 value.

| COMPOUND | TESTED SYSTEM | GI50 |
| --- | --- | --- |
| Cc1c2c(cc3c1C(=O)C(O)=C([C@@H](C)CO)C3=O)C(C)(C)CCC2 | K562 | 38.7 µM (inactive) |
| c1ccc2c(c1)CCN2CCc1c[nH]c2ccccc12 | K562 | > 10 µM (inactive) |
| C[C@]12CCC3c4ccc(O)cc4CC[C@H]3C1CC(=O)N(N)C2=O (some centres undefined) | K562 | > 100 µM (inactive) |
| CC(C)C(NC(=O)OC(C)(C)C)C(=O)N(C)C(Cc1ccccc1)C(=O)N(C)C(C(=O)N(C)C(C(=O)OCc1ccccc1)C(C)C)C(C)C (centres undefined) (Boc-V[NMeF][NMeV][NMeV]-OBn; configuration not given here) | K562 | > 100 µM (inactive) |
| CC1CC2C3CC(F)C4=CC(=O)C=CC4(C)C3(F)C(O)CC2(C)C1(O)C(=O)COC(=O)C(C)(C)C (centres undefined) | K562 | > 100 µM (inactive) |
| CC(=C/C=C/C=C(C)\C=C\C=C(\C)C(=O)O)/C=C/C=C(/C)C(=O)O | K562 | > 100 µM (inactive) |
| O=C1C2c3[nH]c4ccccc4c3C3CCCCC3C2C(=O)N1c1ccccc1 (centres undefined) | K562 | 63.8 µM (inactive) |
| COc1cc(NC(C)=O)ccc1C(=O)NN1C(=O)/C(=C/c2ccco2)N=C1c1ccccc1 | K562 | 20.5 µM (inactive) |
| O=C(O)c1ccccc1/C=N/N=C1NCCN1 | K562 | > 100 µM (inactive) |

###

# System: PC-3
# TEST NAME: NCI tumour cell line growth inhibition, 48 h
Activity calls are given as the source filed them. Cut-off read from the data, not from the text of the source: active = GI50 up to about 1.1 µM and inactive = higher.
REPORTED PROPERTY: GI50

| COMPOUND | REPORTED PROPERTY | ENDPOINT VALUE |
| --- | --- | --- |
| CCOC(=O)C1=CCOc2cc(N(C)C)ccc21 | GI50 | > 100 µM (inactive) |
| CC(=O)C1=C(C)N(c2ccccc2)C2(O)C=CC(O)=C3C(=O)c4ccccc4C(=O)C312 (stereo unspecified) | GI50 | 17.8 µM (inactive) |
| COc1ccc(/C=C/c2cc(O)cc(OC)c2)cc1 | GI50 | 68.5 µM (inactive) |
| N#CCc1nc(-c2cc3ccc(O)cc3oc2=O)cs1 | GI50 | 34.3 µM (inactive) |
| COC(=O)c1c(O)c(C#N)c2[nH]c3ccccc3n2c1=O | GI50 | > 100 µM (inactive) |
| COc1cc2c(cc1[N+](=O)[O-])C(=O)C(Br)(Br)CCC2 | GI50 | 5 µM (inactive) |
| CC(=O)/C=C(/C=N/O)c1ccccc1 | GI50 | > 100 µM (inactive) |
| CCOC(=O)/C=C/[C@H](O[Si](CC)(CC)CC)C(C)(C)C | GI50 | 78.3 µM (inactive) |
| CCN(CC)C(=S)Nc1ccc(-c2cc3ccc(O)cc3oc2=O)cc1 | GI50 | 23.4 µM (inactive) |
| CC1=C(C(=O)N[C@@H](CC(C)C)C(=O)O)N2C(=O)[C@@H](NC(=O)C(N)c3ccccc3)[C@H]2SC1 (stereo partly specified) | GI50 | > 100 µM (inactive) |
| S=C(S)NCCCn1ccnc1 | GI50 | > 100 µM (inactive) |
